Data origin: ChEMBL document CHEMBL4689842

Here the recorded Population Apoptotic (%) is given for each entry.
# System: U2OS
# Method: Multiplex assay against U2OS
# Assay type: toxicity, cell-based
# Measurement parameters: human, 24 h, 1 µM, compound concentration 1 uM, replicate 2
The figure you give is taken to be in %; do not add the unit.

Here's what some known entries look like.
>  <Molecule>
COc1ncc(-c2ccc3nccc(-c4ccnnc4)c3c2)cc1NS(=O)(=O)c1ccc(F)cc1F

>  <Unit of measurement>
%

>  <Population Apoptotic (%)>
33

$$$$
>  <Molecule>
C=CC(=O)Nc1cc2c(Nc3ccc(F)c(Cl)c3)ncnc2cc1OCCCN1CCOCC1.Cl.Cl [CANERTINIB DIHYDROCHLORIDE]

>  <Unit of measurement>
%

>  <Population Apoptotic (%)>
100

$$$$
>  <Molecule>
C[C@@H](NCCCc1cccc(C(F)(F)F)c1)c1cccc2ccccc12.Cl [CINACALCET HYDROCHLORIDE]

>  <Unit of measurement>
%

>  <Population Apoptotic (%)>
36

$$$$
>  <Molecule>
CNCc1ccc(-c2cc(-c3nc(-c4ccc(S(=O)(=O)C(C)C)cc4)cnc3N)on2)cc1

>  <Unit of measurement>
%

>  <Population Apoptotic (%)>
28

$$$$
>  <Molecule>
CC(C)(O)CNc1ncc(-c2ccnc(Nc3ccnc(Cl)c3)n2)c(CC2CC2)n1

>  <Unit of measurement>
%

>  <Population Apoptotic (%)>
20

$$$$

**Query** Find the recorded Population Apoptotic (%) belonging to CN1CCC[C@@H]1CCO[C@](C)(c1ccccc1)c1ccc(Cl)cc1.O=C(O)/C=C/C(=O)O [CLEMASTINE FUMARATE] and report it.
**Result** 18

**Query** Form field: reported Population Apoptotic (%) of Cc1csc2c(N[C@@H](C)CN3CCN(S(=O)(=O)c4ccc(Cl)c(Cl)c4)CC3)ncnc12
**Result** 60

###

// reported Population Fragmented Nuclei (%) for each item listed
# System: U2OS
# Method: Multiplex assay against U2OS
# Format: toxicity, cell-based
# Measurement parameters: human, 24 h, 1 µM, compound concentration 1 uM, replicate 1
Answer format: numeric, % implied, no suffix.

Worked cases, Population Fragmented Nuclei (%) given:
>  <Molecule>
CCN(CC)CCCCNc1ncc2cc(-c3cc(OC)cc(OC)c3)c(NC(=O)NC(C)(C)C)nc2n1

>  <System name>
U2OS

>  <Unit of measurement>
%

>  <Population Fragmented Nuclei (%)>
17

$$$$
>  <Molecule>
COc1ncc(-c2ccc3nccc(-c4ccnnc4)c3c2)cc1NS(=O)(=O)c1ccc(F)cc1F

>  <System name>
U2OS

>  <Unit of measurement>
%

>  <Population Fragmented Nuclei (%)>
19

$$$$
>  <Molecule>
Cl.N#Cc1ccc2[nH]cc(CCCCN3CCN(c4ccc5oc(C(N)=O)cc5c4)CC3)c2c1 [VILAZODONE HYDROCHLORIDE]

>  <System name>
U2OS

>  <Unit of measurement>
%

>  <Population Fragmented Nuclei (%)>
16

$$$$

Turning now to a further molecule:
**Query** // query Population Fragmented Nuclei (%) value for entry CN(C)C(=O)N[C@H]1CC[C@H](CCN2CCN(c3cccc(Cl)c3Cl)CC2)CC1.Cl [CARIPRAZINE HYDROCHLORIDE]
**Result** 13

###

# System: Fibroblast
# Method: Multiplex assay against human fibroblast
# Type: toxicity, cell-based
# Measurement parameters: 48 h, 10 µM, compound concentration 10 uM, replicate 2
Readout label: Population Fragmented Nuclei (%)
Express it in %; write the number only.

>  <Compound>
CCn1c(=O)c(-c2ccc(Cl)cc2Cl)cc2cnc(Nc3ccc(N4CCNCC4)c(F)c3)nc21

>  <Unit of measurement>
%

>  <Population Fragmented Nuclei (%)>
60

$$$$

**Query** I would be grateful if you could share the reported Population Fragmented Nuclei (%) for CN1CCC[C@@H]1CCO[C@](C)(c1ccccc1)c1ccc(Cl)cc1.O=C(O)/C=C/C(=O)O [CLEMASTINE FUMARATE] .
**Result** 47

**Query** Any idea what Population Fragmented Nuclei (%) was measured for Cc1csc2c(N[C@@H](C)CN3CCN(S(=O)(=O)c4ccc(Cl)c(Cl)c4)CC3)ncnc12 ?
**Result** 44

**Query** // Population Fragmented Nuclei (%) lookup, key: C[C@@H](NCCCc1cccc(C(F)(F)F)c1)c1cccc2ccccc12.Cl [CINACALCET HYDROCHLORIDE]
**Result** 35

**Query** Please give the measured Population Fragmented Nuclei (%) for this compound: O=C(NCCCC1CCCCC1)c1ccc(CNC(=O)c2cnn(-c3ccccc3)c2C(F)(F)F)cc1
**Result** 21

**Query** Need Population Fragmented Nuclei (%), item CC(C)NCC(O)COc1ccc(CCOCC2CC2)cc1.Cl (stereo unspecified) [BETAXOLOL HYDROCHLORIDE]
**Result** 48

**Query** # Population Fragmented Nuclei (%) lookup, item Cc1nc(-c2ccc(-c3ccc(C(=O)N4CCc5cc6c(cc54)C4(CCN(C)CC4)CO6)cc3)c(C)c2)no1
**Result** 47

**Query** Consider the compound Cl.N#Cc1ccc2[nH]cc(CCCCN3CCN(c4ccc5oc(C(N)=O)cc5c4)CC3)c2c1 [VILAZODONE HYDROCHLORIDE] and give its measured Population Fragmented Nuclei (%).
**Result** 15

**Query** Quick check: Population Fragmented Nuclei (%) of COc1ncc(-c2ccc3nccc(-c4ccnnc4)c3c2)cc1NS(=O)(=O)c1ccc(F)cc1F ?
**Result** 33

**Query** Look up Population Fragmented Nuclei (%) for this compound: C=CC(=O)Nc1cccc(C(=O)Nc2ccc(Nc3cc(-c4[nH]c(SC)nc4C)ccn3)cc2)c1
**Result** 36

**Query** What Population Fragmented Nuclei (%) value was documented for this compound, CCOCCn1cc(C(=O)Nc2ccc(-n3nc(-c4cccnc4)cc3C(F)(F)F)cn2)ccc1=O ?
**Result** 28

**Query** Need Population Fragmented Nuclei (%), item C=CC(=O)Nc1ccc2ncnc(Nc3ccc(OCc4cccc(F)c4)c(Cl)c3)c2c1.Cc1ccc(S(=O)(=O)O)cc1
**Result** 22

**Query** # Population Fragmented Nuclei (%) lookup, item CN(C)CC#Cc1ccc(OCCCc2sc(N3CCc4cccc(C(=O)Nc5nc6ccccc6s5)c4C3)nc2C(=O)O)c(F)c1
**Result** 25

###

# Tested on: Fibroblast
# Method: Multiplex assay against human fibroblast
# Format: toxicity, cell-based
# Measurement parameters: 48 h, 10 µM, compound concentration 10 uM, replicate 2
Readout label: Population Membrane Permeable-Phenotype (%)
Provide only the numeric value, understood in %.

Worked cases, Population Membrane Permeable-Phenotype (%) given:
>  <Smi>
CN(C)CC#Cc1ccc(OCCCc2sc(N3CCc4cccc(C(=O)Nc5nc6ccccc6s5)c4C3)nc2C(=O)O)c(F)c1

>  <Result value>
35

$$$$
>  <Smi>
OC1(c2ccc(Cl)cc2)CCN(Cc2c[nH]c3ccccc23)CC1

>  <Result value>
17

$$$$

Please look at the following compound next.
**Query** Query (compound): CN1CCN(CCOc2cc(OC3CCOCC3)c3c(Nc4c(Cl)ccc5c4OCO5)ncnc3c2)CC1 ; field requested: Population Membrane Permeable-Phenotype (%)
**Result** 12

###

# Test system: U2OS
# Method: Multiplex assay against U2OS
# Assay type: toxicity, cell-based
# Measurement parameters: human, 48 h, 10 µM, compound concentration 10 uM, replicate 2
Readout label: Population Mitochondria Different-Phenotype (%)
Number in %, nothing else.

The following compounds have reported results that may help.
>  <Compound>
c1cn2cc(-c3ccc4cn[nH]c4c3)nc(Nc3ccc(N4CCOCC4)cc3)c2n1

>  <Unit of measurement>
%

>  <Result value>
30

$$$$
>  <Compound>
O=C1NCN(c2ccccc2)C12CCN(CCCOc1ccc(F)cc1)CC2 [SPIRAMIDE]

>  <Unit of measurement>
%

>  <Result value>
16

$$$$
>  <Compound>
Cc1cc(C)cc(-c2cnc3cc(Cl)c(-c4cccc(O)c4)cc3c2OCCCN)c1

>  <Unit of measurement>
%

>  <Result value>
100

$$$$
>  <Compound>
OC1(c2ccc(Cl)cc2)CCN(Cc2c[nH]c3ccccc23)CC1

>  <Unit of measurement>
%

>  <Result value>
75

$$$$
>  <Compound>
Cc1[nH]c(/C=C2\C(=O)Nc3ccc(S(=O)(=O)N(C)c4cccc(Cl)c4)cc32)c(C)c1C(=O)N1CCN(C)CC1

>  <Unit of measurement>
%

>  <Result value>
100

$$$$
>  <Compound>
Cc1c(-c2ccc(O)cc2)n(Cc2ccc(OCCN3CCCCCC3)cc2)c2ccc(O)cc12

>  <Unit of measurement>
%

>  <Result value>
100

$$$$

**Query** What Population Mitochondria Different-Phenotype (%) appears in the records for this compound with U2OS? Cc1nc(-c2ccc(-c3ccc(C(=O)N4CCc5cc6c(cc54)C4(CCN(C)CC4)CO6)cc3)c(C)c2)no1
**Result** 100

**Query** Form field: Population Mitochondria Different-Phenotype (%) recorded for CC[C@H](C)C(=O)O[C@H]1C[C@@H](C)C=C2C=C[C@H](C)[C@H](CC[C@@H]3C[C@@H](O)CC(=O)O3)[C@H]21 with U2OS (enter value)
**Result** 6
